- PROTOCOL_DETAILS: Peroxyl radical scavenging ability (AAPH, ESR)
- Type: biochemical
- ASSAY_CONTEXT: DMPO spin trap, AAPH 37° C.
EXPERIMENTAL_READOUT: pIC50
One number for each entry, as −log10 of the molar value.

In plain terms, CCN1C=CC(=Cc2cc[n+](CC)c3ccccc23)c2ccccc21.[I-] has a documented pIC50 of 4.37

---

- System: PC12-HS cells
- PROTOCOL_DETAILS: Evaluation method B: neurite-outgrowth promoting activity in the presence of NGF
- Format: cell-based, rat
- ASSAY_CONTEXT: 200 nM; NGF 10 ng/ml
EXPERIMENTAL_READOUT: Neurite-outgrowth rate (%)
Numbers only, in %.

CCN1C=CC(=CC=Cc2cc[n+](CC)c3ccccc23)c2ccccc21.[Br-] [NK-36] = 33.8

Parameters: items (list). Returns: Neurite-outgrowth rate (%) for each item.
1. CCN1C(=CC(C)=Cc2sc3ccccc3[n+]2CCCS(=O)(=O)[O-])Sc2ccccc21 [NK-4781]
2. COC1C=CC=CC1=CC=CC1=[N+](C)c2ccc3ccccc3c2C1(C)C.Cc1ccc(S(=O)(=O)[O-])cc1 (centres unmarked) [NK-10214]
3. CCN1C=CC(=Cc2cc[n+](CC)c3ccccc23)c2ccccc21.[I-] [NK-6]
4. O=S(=O)([O-])CCCN1CCSC1=CC=CC1=[N+](CCCS(=O)(=O)[O-])CCS1.[Na+] [NK-3134]
5. CC1(C)C(=CC=CC2=[N+](CCO)c3ccccc3C2(C)C)N(CCO)c2ccccc21.[Br-] [NK-1883]
6. CCCCN1C=CC(=CC=Cc2cc[n+](CCCC)c3ccccc23)c2ccccc21.[I-] [NK-44]
7. CC1=CO/C(=C\C=C\c2occ(C)[n+]2C)N1C.F[P-](F)(F)(F)(F)F [NK-10089]

Found:
31.2
23.6
32.6
29.4
13.3
29.3
0.0

---

- Test system: PC12-HS cells
- PROTOCOL_DETAILS: Evaluation method A: neurocyte growth acceleration activity (Alamar blue)
- Assay type: cell-based, rat
- ASSAY_CONTEXT: 40 nM; negative control = 100%
EXPERIMENTAL_READOUT: Cell proliferation rate (%)
Numbers only, in %.

Worked set:
CCN1C=CC(=CC=Cc2cc[n+](CC)c3ccccc23)c2ccccc21.[Br-] = 123.0
CC1(C)C(=CC=CC2=[N+](CCO)c3ccccc3C2(C)C)N(CCO)c2ccccc21.[Br-] = 104.8
COC1C=CC=CC1=CC=CC1=[N+](C)c2ccc3ccccc3c2C1(C)C.Cc1ccc(S(=O)(=O)[O-])cc1 (centres unmarked) = 109.3
CCN1C=CC(=Cc2cc[n+](CC)c3ccccc23)c2ccccc21.[I-] = 105.0
O=S(=O)([O-])CCCN1CCSC1=CC=CC1=[N+](CCCS(=O)(=O)[O-])CCS1.[Na+] = 103.9
CC1=CO/C(=C\C=C\c2occ(C)[n+]2C)N1C.F[P-](F)(F)(F)(F)F = 110.6

Parameters: items (list). Returns: Cell proliferation rate (%) for each item.
1. CCN1C(=CC(C)=Cc2sc3ccccc3[n+]2CCCS(=O)(=O)[O-])Sc2ccccc21
2. CCCCN1C=CC(=CC=Cc2cc[n+](CCCC)c3ccccc23)c2ccccc21.[I-]

Found:
1. 110.0
2. 193.4
